Measured values drawn from the supplement of paper PMC10567573 for this set.

B1: KIAA1161 (parent)
chain: FMPAMQFSIPPWRYDAEVVAIAQK

Variants of: B1
measurement_notes: protein stability index of a GFP-peptide fusion (GPS, HEK-293T) (PSI 1-6); higher = more stable;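 also: lentivirally expressed fusions sorted by FACS into six bins by GFP to DsRed ratio, PSI derived from sequencing read proportions per bin multiplied by bin number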
run_parameters: c terminus: a fixed tail appended
protein stability index below 2 gives false; protein stability index at or above it gives true.

D15K: false
Y14L: false
I9P: false
Q6E: false
Q6H: false

Textbook exercise: given the entry P11A , state whether its protein stability index is greater than or equal to 2.
false

Textbook exercise: given the entry I21R , state whether its protein stability index is greater than or equal to 2.
true

protein stability index >= 2 for V18Q ?
true

Hi team, for V18W , is the recorded protein stability index at or above 2?
true

Does V19T have a reported protein stability index of at least 2?
true

// inclusive: protein stability index at least 2? input: A20D
true

Threshold query (protein stability index >= 2) on A16V
true

For this variant, is measured protein stability index 2 or higher? M2S
false

Given the entry A16I , answer whether its protein stability index meets or surpasses 2.
true

Is protein stability index at least 2? Consider V18C
false

Is the recorded value of protein stability index equal to or greater than 2 for this variant? P11L
true

Entry P10E : is its protein stability index no less than 2?
true
